- Tested on: S. aureus RN450
- assayProtocol: In vitro minimum inhibitory concentration (MIC) assay, S. aureus
- Assay type: cell-based
- Set-up: key: Compounds which showed superior inhibition of S. aureus, S. pseumoniae and E. coli are indicated by “***,”; compounds which showed very good or good inhibition of S. aureus, S. pseumoniae and E. coli are indicated by “**” or “*” respectively; compounds which showed very good or good inhibition of S. aureus, S. pseumoniae and E. coli are indicated by “**” or “*” respectively
- testContext: broth microdilution in CAMHB, 35° C., approximately 18 hour
quantityMeasured: Median MIC for S. aureus RN450

> print(dat)
                                 itemsmiles           system  endpointresult
1  CN(C)c1cc(-c2cc[nH]n2)c(O)c2c1C[C@H]1C[C@H]3[C@H](N(C)C)C(O)=C(C(N)=O)C(=O)[C@@]3(O)C(O)=C1C2=O  S. aureus RN450             ***
2  CN(C)c1cc(-c2ccncc2)c(O)c2c1C[C@H]1C[C@H]3[C@H](N(C)C)C(O)=C(C(N)=O)C(=O)[C@@]3(O)C(O)=C1C2=O  S. aureus RN450             ***
3  CN(C)c1cc(C(N)=O)c(O)c2c1C[C@H]1C[C@H]3[C@H](N(C)C)C(O)=C(C(N)=O)C(=O)[C@@]3(O)C(O)=C1C2=O  S. aureus RN450               *
4  CN(C)c1cc(-c2ccsc2)c(O)c2c1C[C@H]1C[C@H]3[C@H](N(C)C)C(O)=C(C(N)=O)C(=O)[C@@]3(O)C(O)=C1C2=O  S. aureus RN450             ***
5  CCNC(=O)c1cc(N(C)C)c2c(c1O)C(=O)C1=C(O)[C@]3(O)C(=O)C(C(N)=O)=C(O)[C@@H](N(C)C)[C@@H]3C[C@@H]1C2  S. aureus RN450               *
6  CC(=O)c1cccc(-c2cc(N(C)C)c3c(c2O)C(=O)C2=C(O)[C@]4(O)C(=O)C(C(N)=O)=C(O)[C@@H](N(C)C)[C@@H]4C[C@@H]2C3)c1  S. aureus RN450             ***

###

- Tested on: S. aureus RN450
- assayProtocol: In vitro minimum inhibitory concentration (MIC) assay, S. aureus
- Assay type: cell-based
- Set-up: key: Compounds which showed superior inhibition of S. aureus, S. pseumoniae and E. coli are indicated by “***,”; compounds which showed very good or good inhibition of S. aureus, S. pseumoniae and E. coli are indicated by “**” or “*” respectively; compounds which showed very good or good inhibition of S. aureus, S. pseumoniae and E. coli are indicated by “**” or “*” respectively
- testContext: broth microdilution in CAMHB, 35° C., approximately 18 hour
quantityMeasured: Median MIC for S. aureus RN450

> print(dat)
                                    molecule  endpointresult
 1  CN(C)c1cc(-c2cccc(C(=O)O)c2)c(O)c2c1C[C@H]1C[C@H]3[C@H](N(C)C)C(O)=C(C(N)=O)C(=O)[C@@]3(O)C(O)=C1C2=O               *
 2  CN(C)c1cc(C(=O)NO)c(O)c2c1C[C@H]1C[C@H]3[C@H](N(C)C)C(O)=C(C(N)=O)C(=O)[C@@]3(O)C(O)=C1C2=O               *
 3  CN(C)c1cc(C(=O)Nc2ccccc2)c(O)c2c1C[C@H]1C[C@H]3[C@H](N(C)C)C(O)=C(C(N)=O)C(=O)[C@@]3(O)C(O)=C1C2=O             ***
 4  CN(C)c1cc(-c2cccnc2)c(O)c2c1C[C@H]1C[C@H]3[C@H](N(C)C)C(O)=C(C(N)=O)C(=O)[C@@]3(O)C(O)=C1C2=O              **
 5  COC(=O)C#Cc1cc(N(C)C)c2c(c1O)C(=O)C1=C(O)[C@]3(O)C(=O)C(C(N)=O)=C(O)[C@H](N(C)C)[C@@H]3C[C@@H]1C2             ***
 6  CCCNC(=O)c1cc(N(C)C)c2c(c1O)C(=O)C1=C(O)[C@]3(O)C(=O)C(C(N)=O)=C(O)[C@@H](N(C)C)[C@@H]3C[C@@H]1C2               *
 7  CCCCNC(=O)c1cc(N(C)C)c2c(c1O)C(=O)C1=C(O)[C@]3(O)C(=O)C(C(N)=O)=C(O)[C@@H](N(C)C)[C@@H]3C[C@@H]1C2               *
 8  CN(C)c1cc(C(=O)NCCN)c(O)c2c1C[C@H]1C[C@H]3[C@H](N(C)C)C(O)=C(C(N)=O)C(=O)[C@@]3(O)C(O)=C1C2=O               *
 9  CN(C)c1cccc(-c2cc(N(C)C)c3c(c2O)C(=O)C2=C(O)[C@]4(O)C(=O)C(C(N)=O)=C(O)[C@H](N(C)C)[C@@H]4C[C@@H]2C3)c1             ***
10  CN(C)c1cc(-c2cnccn2)c(O)c2c1C[C@H]1C[C@H]3[C@H](N(C)C)C(O)=C(C(N)=O)C(=O)[C@@]3(O)C(O)=C1C2=O             ***
11  CN(C)c1cc(C#N)c(O)c2c1C[C@H]1C[C@H]3[C@H](N(C)C)C(O)=C(C(N)=O)C(=O)[C@@]3(O)C(O)=C1C2=O             ***
12  CN(C)c1cc(-c2ccccn2)c(O)c2c1C[C@H]1C[C@H]3[C@H](N(C)C)C(O)=C(C(N)=O)C(=O)[C@@]3(O)C(O)=C1C2=O             ***
13  COC(=O)CNC(=O)c1cc(N(C)C)c2c(c1O)C(=O)C1=C(O)[C@]3(O)C(=O)C(C(N)=O)=C(O)[C@@H](N(C)C)[C@@H]3C[C@@H]1C2               *
14  CN(C)c1cc(C#N)c(O)c2c1C[C@H]1C[C@H]3[C@@H](N(C)C)C(O)=C(C(N)=O)C(=O)C3(O)C(O)=C1C2=O (some centres unmarked)             ***
15  CN(C)c1cc(C(=O)N2CCCCCC2)c(O)c2c1C[C@H]1C[C@H]3[C@H](N(C)C)C(O)=C(C(N)=O)C(=O)[C@@]3(O)C(O)=C1C2=O              **
16  CN(C)c1cc(C#CC(=O)O)c(O)c2c1C[C@H]1C[C@H]3[C@@H](N(C)C)C(O)=C(C(N)=O)C(=O)[C@@]3(O)C(O)=C1C2=O               *
17  CN(C)c1cc(-c2ccc(C(=O)O)s2)c(O)c2c1C[C@H]1C[C@H]3[C@H](N(C)C)C(O)=C(C(N)=O)C(=O)[C@@]3(O)C(O)=C1C2=O               *
